A set of molecules tested on CCRF-CEM cells, with measured pIC50:
Lab note — pIC50 values are minus log10 of concentrations in M.

1. COc1cc(NS(C)(=O)=O)ccc1Nc1c2ccccc2nc2ccccc12 [M-AMSA, reference compound] :: 6.74

Moving on to another molecule below.
Memo: C=CCC12CC3c4nc5ccccc5c(=O)n4C(C)C(=O)N3C1N(C(C)=O)c1ccccc12 (centres unmarked) [5-N-Ac"Allyl" ardeemin, "Allyl" 5-N-acetylardeemin] , reported pIC50: 4.27

---

Test system: DC-3F/ADII cells
test conditions: IC50 ratio DC-3F/ADII to DC-3F; * collaterally sensitive
Numbered stars: 1 amine (or outer) side, 2 acyl side, 3 side chain; on linkers, the order of the positions; unused ones are H or OH. Bridge positions count the residues as written; N and C are the ends. Square brackets hold non-standard residues; d marks the D form. Peptide text beside a SMILES is read from it. I, II: the chains in the order shown. Actinocin(9to1) = Cc1c2oc3c(C)ccc(C(=O)[*:1])c3nc-2c(C(=O)[*:2])c(N)c1=O; NMeV = CN[C@H](C(=O)O)C(C)C; Sar = CNCC(=O)O
observable: (B)/(A) (X)
API: value field is a number in X; no unit string.

Notebook: Cc1c2oc3c(C)ccc(C(=O)N[C@@H]4C(=O)N[C@H](C(C)C)C(=O)N5CCC[C@H]5C(=O)N(C)CC(=O)N(C)[C@@H](C(C)C)C(=O)O[C@@H]4C)c3nc-2c(C(=O)N[C@@H]2C(=O)N[C@H](C(C)C)C(=O)N3CCC[C@H]3C(=O)N(C)CC(=O)N(C)[C@@H](C(C)C)C(=O)O[C@@H]2C)c(N)c1=O [Actinomycin D, reference compound] (I: T[dV]P[Sar][NMeV] / II: T[dV]P[Sar][NMeV]; ester I:1-I:C, II:1-II:C; linker I:N-II:N via Actinocin(9to1)) , (B)/(A) read as 349.6
